These measurements were taken from ChEMBL document CHEMBL1275448.

- Tested on: Mycolicibacterium smegmatis
- Run Description: Antimicrobial activity against Mycobacterium smegmatis overexpressing rv0194 gene by microplate Alamar blue assay
- Assay type: functional
Endpoint Label: MIC

CC[C@H]1OC(=O)[C@H](C)[C@@H](O[C@H]2C[C@@](C)(OC)[C@@H](O)[C@H](C)O2)[C@H](C)[C@@H](O[C@@H]2O[C@H](C)C[C@H](N(C)C)[C@H]2O)[C@](C)(O)C[C@@H](C)C(=O)[C@H](C)[C@@H](O)[C@]1(C)O [ERYTHROMYCIN]	10 µg/mL
CC1(C)S[C@@H]2[C@H](NC(=O)[C@H](N)c3ccccc3)C(=O)N2[C@H]1C(=O)O [AMPICILLIN]	250 µg/mL
CN(C)[C@@H]1C(O)=C(C(N)=O)C(=O)[C@@]2(O)C(O)=C3C(=O)c4c(O)cccc4[C@@](C)(O)[C@H]3C[C@@H]12 [TETRACYCLINE]	0.3 µg/mL
CN[C@H](CC(C)C)C(=O)N[C@H]1C(=O)N[C@@H](CC(N)=O)C(=O)N[C@H]2C(=O)N[C@H]3C(=O)N[C@H](C(=O)N[C@H](C(=O)O)c4cc(O)cc(O)c4-c4cc3ccc4O)[C@H](O)c3ccc(c(Cl)c3)Oc3cc2cc(c3O[C@@H]2O[C@H](CO)[C@@H](O)[C@H](O)[C@H]2O[C@H]2C[C@](C)(N)[C@H](O)[C@H](C)O2)Oc2ccc(cc2Cl)[C@H]1O [VANCOMYCIN]	2.5 µg/mL
O=C(N[C@H](CO)[C@H](O)c1ccc([N+](=O)[O-])cc1)C(Cl)Cl [CHLORAMPHENICOL]	32 µg/mL

The record that follows has no MIC shown yet.
Input: State the recorded MIC for this entry: CO[C@@H]1[C@@H](OC(N)=O)[C@@H](O)[C@H](Oc2ccc3c(O)c(NC(=O)c4ccc(O)c(CC=C(C)C)c4)c(=O)oc3c2C)OC1(C)C [NOVOBIOCIN]
Output: 8 µg/mL
